system: glycerol oxidase II; assay: Inhibitors of enzyme: activity with 1 mM inhibitor, oxygen consumption rate by Warburg's manometer; format: biochemical, Penicillium sp. KY 868; settings: activity with no inhibitor defined as 100, from oxygen consumption rate
Hi, to clarify the labels: true (1) covers Relative rate (%) from 80% upward, false (0) covers anything below 80%.

compound	groupLabel
c1ccc(-c2ccccn2)nc1 [α,α'-Dipyridyl]	false (0)
c1cnc2c(c1)ccc1cccnc12 [o-Phenanthroline]	false (0)
[Cl-].[Cl-].[Zn+2] [ZnCl2]	true (1)
O=C(O)CN(CCN(CC(=O)O)CC(=O)O)CC(=O)O [EDTA]	true (1)
CC(=O)[O-].CC(=O)[O-].[Pb+2] [Pb(CH3 COO)2]	false (0)
O=[N+]([O-])[O-].[Ag+] [AgNO3]	false (0)
O=S(=O)([O-])[O-].[Fe+2] [FeSO4]	false (0)
NO [NH2 OH]	false (0)
CCN(CC)C(=S)S [Diethyl dithiocarbamate]	false (0)
